biological target: Short transient receptor potential channel 6 (Mus musculus); test: TRPC6 inhibition potency of TRPC4 inhibitor analogs, dose response, selectivity assay for selective TRPC4 inhibitor project, HEK293 cells, membrane potential dye, IC50 (AID 492987); conditions: at 20 µM (top of the series)
Active and inactive are the calls of the source.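 The calls were made as follows: active = over 30% block of the TRPC6 ion channel at some tested dose, plus a fitted dose-response curve; inactive = no block at any dose, or no fitted curve.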
endpoint_label: fluorescence ratio, lower = inhibition

Below, 5 compounds whose answers are already recorded.
> print(dat)
                                   compound                       experimental.target  data.value
1  Cc1cc(N2CCN(CC3CCCO3)CC2)nc2ccccc12 (stereo not drawn)  Short transient receptor potential channel 6 (Mus musculus)    inactive
2  Cc1cc(N2CCCC(O)C2)nc2ccccc12 (stereo not drawn)  Short transient receptor potential channel 6 (Mus musculus)    inactive
3              Cc1cc(N2CCN(C)CC2)nc2ccccc12  Short transient receptor potential channel 6 (Mus musculus)    inactive
4             Cc1cc(N2CCCCCC2)nc2ccc(F)cc12  Short transient receptor potential channel 6 (Mus musculus)    inactive
5                      Cc1ccnc(N2CCCCCC2)n1  Short transient receptor potential channel 6 (Mus musculus)    inactive

Input line: Query fluorescence ratio, lower = inhibition on Short transient receptor potential channel 6 (Mus musculus) for `Cc1cc(N2CCN(c3ccccc3C#N)CC2)nc2ccccc12`
Output line: inactive
